System: Ba/F3 P210-BCR-ABL1 RUNX1-/mut (mouse)
measurementNotes: drug sensitivity score (DSS) (DSS score); higher = more sensitive (stronger growth inhibition); extreme values may be limits of the assay
measuredEndpoint: drug sensitivity score
Format: numeric value only, no unit, no commentary.

C[C@H]1Oc2cc(cnc2N)-c2c(nn(C)c2C#N)CN(C)C(=O)c2ccc(F)cc21 = 2.2
COc1cc([C@@H]2c3cc4c(cc3[C@@H](O[C@@H]3O[C@@H]5CO[C@@H](c6cccs6)O[C@H]5[C@H](O)[C@H]3O)[C@H]3COC(=O)[C@H]23)OCO4)cc(OC)c1O [Teniposide] = 0
CC[C@@H]1C(=O)N(C)c2cnc(Nc3ccc(C(=O)NC4CCN(C)CC4)cc3OC)nc2N1C1CCCC1 [BI 2536] = 15.2
CNC(=O)c1cccc(-c2ccc3c(N4CCOC[C@@H]4C)nc(N4CCOC[C@@H]4C)nc3n2)c1 [Vistusertib] = 16.1
Nc1ncnc2c1nc(Cl)n2[C@@H]1O[C@H](CO)[C@@H](O)[C@H]1O [8-chloro-adenosine] = 13.8
COc1cc(C(=O)O)ccc1NC(=O)[C@@H]1N[C@@H](CC(C)(C)C)[C@](C#N)(c2ccc(Cl)cc2F)[C@H]1c1cccc(Cl)c1F [Idasanutlin] = 8.5
C[C@]1(O)C[C@@H](c2nc(-c3ccc4ccc(-c5ccccc5)nc4c3)c3c(N)nccn32)C1 [Linsitinib] = 1.75
C=C1C[C@@H]2CC[C@@]34C[C@H]5O[C@H]6[C@@H](O3)[C@H]3O[C@H](CC[C@@H]3O[C@H]6[C@H]5O4)CC(=O)C[C@@H]3[C@@H](OC)[C@@H](C[C@H](O)CN)O[C@H]3C[C@H]3O[C@@H](CC[C@@H]1O2)C[C@@H](C)C3=C [Eribulin] = 24.6

Recorded drug sensitivity score for Cc1cc(C)c(CNC(=O)c2cc(-c3ccc(CN4CCOCC4)cc3)cc3c2cnn3C2CCCC2)c(=O)[nH]1 [EPZ-5687] , please?
0.9

Recorded drug sensitivity score for CC(C)C[C@H](NC(=O)[C@H](Cc1ccccc1)NC(=O)c1cnccn1)B(O)O [Bortezomib] , please?
28.4

Recorded drug sensitivity score for CNC(=O)c1ccc(N2C(=S)N(c3cnc(C#N)c(C(F)(F)F)c3)C(=O)C23CCC3)cc1F [Apalutamide] , please?
0

Values from the supplement of paper PMC8024199
